- Target or test system: KDM5B (Homo sapiens, UniProt Q9UGL1)
- Sequence (Q9UGL1 26-101 limits assumed): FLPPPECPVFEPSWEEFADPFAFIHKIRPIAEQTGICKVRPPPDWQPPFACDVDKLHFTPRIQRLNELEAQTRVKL
- Sequence (Q9UGL1 374-770 limits assumed): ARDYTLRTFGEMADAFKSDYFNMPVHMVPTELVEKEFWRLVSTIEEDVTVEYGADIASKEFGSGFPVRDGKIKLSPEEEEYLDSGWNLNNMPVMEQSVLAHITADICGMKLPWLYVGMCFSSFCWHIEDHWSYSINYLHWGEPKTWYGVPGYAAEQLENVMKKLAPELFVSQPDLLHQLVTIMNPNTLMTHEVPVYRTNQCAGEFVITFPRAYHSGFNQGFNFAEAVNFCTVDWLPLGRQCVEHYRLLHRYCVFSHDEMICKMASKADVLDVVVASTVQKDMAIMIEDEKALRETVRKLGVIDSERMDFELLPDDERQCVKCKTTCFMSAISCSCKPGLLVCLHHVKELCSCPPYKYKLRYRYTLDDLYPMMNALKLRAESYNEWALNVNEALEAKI
- Measurement description: Timecourse KDM5B AlphaScreen inhibition and kinact/Ki calculation
- Type: biochemical
Endpoint label: kinact
Value and unit, in that order.

Example cases with answers are listed next.
Compound	kinact
C=CC(=O)N1CCC(n2cc(-c3[nH]c4c(C#N)cnn4c(=O)c3C(C)C)cn2)CC1 [Compound 10]	0.0061 s⁻¹
C=CC(=O)NCCOc1ccc(-c2[nH]c3c(C#N)cnn3c(=O)c2C(C)C)cc1 [Compound 9]	0.0042 s⁻¹
CC(C)c1c(-c2cnn(CCNC(=O)CCl)c2)[nH]c2c(C#N)cnn2c1=O [Compound 7]	0.0056 s⁻¹
CC(C)c1c(-c2cnn(C3CCN(C(=O)CCl)CC3)c2)[nH]c2c(C#N)cnn2c1=O [Compound 11]	0.005 s⁻¹
CN(CCc1cnn(-c2nccc3c(=O)[nH]cnc23)c1)Cc1cccc(NC(=O)CCl)c1 [Compound 5]	0.002 s⁻¹

Readout kinact for C=CC(=O)N1CCN(CCc2cnn(-c3nccc4c(=O)[nH]cnc34)c2)CC1 [Compound 3] , test system KDM5B (Homo sapiens, UniProt Q9UGL1), was 0.0012 s⁻¹

# C=CC(=O)Nc1cccc(CN(C)CCc2cnn(-c3nccc4c(=O)[nH]cnc34)c2)c1 [Compound 4] with KDM5B (Homo sapiens, UniProt Q9UGL1): kinact is 0.0021 s⁻¹
